These data points were gathered from paper PMC7037682.

- measurement.protocol: Pharmacokinetics of iv valsartan in rats with or without repeated iv Rc
- Format: in vivo
- run.conditions: rat, plasma, 1 mg/kg, valsartan 1 mg/kg iv, control group of Rc study
experimental.readout: clearance (mL/min/kg)
Dear colleague, please return just the value in mL/min/kg, with no unit written.

clearance measured on CCCCC(=O)N(Cc1ccc(-c2ccccc2-c2nnn[nH]2)cc1)[C@H](C(=O)O)C(C)C [Valsartan, valsartan] = 25.7

----------
- measurement.protocol: Pharmacokinetics of iv valsartan in rats with or without repeated iv Rc
- Format: in vivo
- run.conditions: rat, plasma, 1 mg/kg, valsartan 1 mg/kg iv, after Rc 3 mg/kg/day iv for 5 days
experimental.readout: AUC(0-inf)

Data point: CCCCC(=O)N(Cc1ccc(-c2ccccc2-c2nnn[nH]2)cc1)[C@H](C(=O)O)C(C)C [Valsartan, valsartan] ; AUC(0-inf) = 0.836 µg·h/mL

----------
- measurement.protocol: Protein binding in rat liver homogenate by rapid equilibrium dialysis
- Type: in vitro ADME
- run.conditions: 10% liver homogenate, rat liver homogenate (10%)
- Method: The protein binding of Rb1, Rb2, and Rc (1 μM) in rat plasma and liver homogenate was determined using a rapid equilibrium dialysis kit (ThermoFisher Scientific Korea, Seoul, Korea) according to the manufacturer’s instructions. […] Tissue protein binding was calculated using the following equations, and a dilution factor (D as a value of 10) was used since we used 10% liver homognenates. […]
Catalogue of compounds with associated fraction unbound at 4 h, 1 μM
Write the number on its own, no unit after it.

Some solved cases for reference:
[
  {
    "compound": "CC(C)=CCC[C@](C)(O[C@@H]1O[C@H](CO[C@@H]2O[C@H](CO)[C@@H](O)[C@H](O)[C@H]2O)[C@@H](O)[C@H](O)[C@H]1O)[C@H]1CC[C@]2(C)[C@@H]1[C@H](O)C[C@@H]1[C@@]3(C)CC[C@H](O[C@@H]4O[C@H](CO)[C@@H](O)[C@H](O)[C@H]4O[C@@H]4O[C@H](CO)[C@@H](O)[C@H](O)[C@H]4O)C(C)(C)[C@@H]3CC[C@]12C [Rb1, ginsenoside Rb1]",
    "experimental.readout": "fraction unbound at 4 h, 1 μM",
    "reading": 0.004
  },
  {
    "compound": "CC(C)=CCC[C@](C)(O[C@@H]1O[C@H](CO[C@@H]2OC[C@H](O)[C@H](O)[C@H]2O)[C@@H](O)[C@H](O)[C@H]1O)[C@H]1CC[C@]2(C)[C@@H]1[C@H](O)C[C@@H]1[C@@]3(C)CC[C@H](O[C@@H]4O[C@H](CO)[C@@H](O)[C@H](O)[C@H]4O[C@@H]4O[C@H](CO)[C@@H](O)[C@H](O)[C@H]4O)C(C)(C)[C@@H]3CC[C@]12C [Rb2, ginsenoside Rb2]",
    "experimental.readout": "fraction unbound at 4 h, 1 μM",
    "reading": 0.004
  }
]

--- query ---
Consider CC(C)=CCC[C@](C)(O[C@@H]1O[C@H](CO[C@@H]2O[C@@H](CO)[C@H](O)[C@H]2O)[C@@H](O)[C@H](O)[C@H]1O)[C@H]1CC[C@]2(C)[C@@H]1[C@H](O)C[C@@H]1[C@@]3(C)CC[C@H](O[C@@H]4O[C@H](CO)[C@@H](O)[C@H](O)[C@H]4O[C@@H]4O[C@H](CO)[C@@H](O)[C@H](O)[C@H]4O)C(C)(C)[C@@H]3CC[C@]12C [Rc, ginsenoside Rc] . Its measured fraction unbound at 4 h, 1 μM is 0.005

----------
- system: OATP1B1 (Homo sapiens, UniProt Q9Y6L6)
- Sequence (Q9Y6L6 whole entry): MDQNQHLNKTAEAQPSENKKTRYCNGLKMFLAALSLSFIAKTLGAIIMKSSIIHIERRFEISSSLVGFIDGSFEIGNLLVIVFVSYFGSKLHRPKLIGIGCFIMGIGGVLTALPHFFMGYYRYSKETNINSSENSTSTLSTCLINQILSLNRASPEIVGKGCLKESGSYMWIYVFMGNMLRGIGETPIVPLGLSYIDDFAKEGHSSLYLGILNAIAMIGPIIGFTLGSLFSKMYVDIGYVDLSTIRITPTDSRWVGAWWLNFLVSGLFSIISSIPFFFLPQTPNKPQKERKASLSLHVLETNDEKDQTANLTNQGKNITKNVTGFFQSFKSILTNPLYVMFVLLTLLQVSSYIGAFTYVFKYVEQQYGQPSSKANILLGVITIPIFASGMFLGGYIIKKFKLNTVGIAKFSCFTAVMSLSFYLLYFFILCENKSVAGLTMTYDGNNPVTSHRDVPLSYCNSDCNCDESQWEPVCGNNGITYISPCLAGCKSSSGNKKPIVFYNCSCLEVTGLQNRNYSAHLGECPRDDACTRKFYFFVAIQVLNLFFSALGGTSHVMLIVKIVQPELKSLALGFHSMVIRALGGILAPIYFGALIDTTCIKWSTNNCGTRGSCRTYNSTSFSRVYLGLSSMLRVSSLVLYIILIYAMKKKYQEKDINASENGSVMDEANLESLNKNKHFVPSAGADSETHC
- measurement.protocol: Inhibition of OATP1B1-mediated [3H]estrone-3-sulfate uptake in HEK293-OATP1B1 cells
- Text: HEK293 cells overexpressing the OCT1, OCT2, OAT1, OAT3, OATP1B1, and OATP1B3 transporters (HEK293-OCT1, -OCT2, -OAT1, -OAT3, -OATP1B1, and -OATP1B3, respectively) and HEK293-mock cells (Corning Life Sciences; Woburn, MA, USA) were used and characterized as previously described. […]
experimental.readout: IC50

Examples with their reported IC50 follow.
[
  {
    "compound": "CC(C)=CCC[C@](C)(O)[C@H]1CC[C@]2(C)[C@@H]1[C@H](O)C[C@@H]1[C@@]3(C)CC[C@H](O)C(C)(C)[C@@H]3[C@@H](O[C@@H]3O[C@H](CO)[C@@H](O)[C@H](O)[C@H]3O)C[C@]12C [Rh1, ginsenoside Rh1]",
    "IC50": "> 100 µM"
  },
  {
    "compound": "CC(C)=CCC[C@](C)(O[C@@H]1O[C@H](CO[C@@H]2O[C@@H](CO)[C@H](O)[C@H]2O)[C@@H](O)[C@H](O)[C@H]1O)[C@H]1CC[C@]2(C)[C@@H]1[C@H](O)C[C@@H]1[C@@]3(C)CC[C@H](O[C@@H]4O[C@H](CO)[C@@H](O)[C@H](O)[C@H]4O[C@@H]4O[C@H](CO)[C@@H](O)[C@H](O)[C@H]4O)C(C)(C)[C@@H]3CC[C@]12C [Rc, ginsenoside Rc]",
    "IC50": "18.3 µM"
  }
]

Now for a further compound.
Reported IC50 of CC(C)=CCC[C@](C)(O[C@@H]1O[C@H](CO)[C@@H](O)[C@H](O)[C@H]1O)[C@H]1CC[C@]2(C)[C@@H]1[C@H](O)C[C@@H]1[C@@]3(C)CC[C@H](O)C(C)(C)[C@@H]3[C@@H](O[C@@H]3O[C@H](CO)[C@@H](O)[C@H](O)[C@H]3O[C@@H]3O[C@@H](C)[C@H](O)[C@@H](O)[C@H]3O)C[C@]12C [Re, ginsenoside Re] : > 100 µM

----------
- measurement.protocol: Plasma pharmacokinetics of ginsenosides in rats after 1-week repeated RGE
- run.conditions: LC-MS/MS, after RGE 1.5 g/kg/day po for 1 week
- Method: The rats were randomly divided into the control and RGE groups. The RGE group received a RGE suspension (1.5 g/mL/kg/day, in distilled water) for 7 days via oral gavage. The control group received distilled water for 7 days via oral gavage. […] Pharmacokinetic parameters were calculated from plasma concentration-time profile using non-compartment analysis of WinNonlin (version 5.1; Pharsights, Cary, NC, USA). […]

[
  {
    "compound": "CC(C)=CCC[C@](C)(O[C@@H]1O[C@H](CO)[C@@H](O)[C@H](O)[C@H]1O)[C@H]1CC[C@]2(C)[C@@H]1[C@H](O)C[C@@H]1[C@@]3(C)CC[C@H](O)C(C)(C)[C@@H]3[C@@H](O[C@@H]3O[C@H](CO)[C@@H](O)[C@H](O)[C@H]3O)C[C@]12C [Rg1, ginsenoside Rg1]",
    "detection in rat plasma": "not detected"
  },
  {
    "compound": "CC(C)=CCC[C@](C)(O)[C@H]1CC[C@]2(C)[C@@H]1[C@H](O)C[C@@H]1[C@@]3(C)CC[C@H](O)C(C)(C)[C@@H]3[C@@H](O[C@@H]3O[C@H](CO)[C@@H](O)[C@H](O)[C@H]3O)C[C@]12C [Rh1, ginsenoside Rh1]",
    "detection in rat plasma": "not detected"
  }
]

----------
- measurement.protocol: Pharmacokinetics of iv valsartan in rats with or without repeated iv Rc
- Assay type: in vivo
- run.conditions: rat, plasma, 1 mg/kg, valsartan 1 mg/kg iv, control group of Rc study
experimental.readout: MRT (h)
Express your answer in h, writing the number without its unit.

get_value(item= CCCCC(=O)N(Cc1ccc(-c2ccccc2-c2nnn[nH]2)cc1)[C@H](C(=O)O)C(C)C , readout=MRT) returns 2.27

----------
- system: OATP1B3 (Homo sapiens)
- Sequence (Q9NPD5 whole entry): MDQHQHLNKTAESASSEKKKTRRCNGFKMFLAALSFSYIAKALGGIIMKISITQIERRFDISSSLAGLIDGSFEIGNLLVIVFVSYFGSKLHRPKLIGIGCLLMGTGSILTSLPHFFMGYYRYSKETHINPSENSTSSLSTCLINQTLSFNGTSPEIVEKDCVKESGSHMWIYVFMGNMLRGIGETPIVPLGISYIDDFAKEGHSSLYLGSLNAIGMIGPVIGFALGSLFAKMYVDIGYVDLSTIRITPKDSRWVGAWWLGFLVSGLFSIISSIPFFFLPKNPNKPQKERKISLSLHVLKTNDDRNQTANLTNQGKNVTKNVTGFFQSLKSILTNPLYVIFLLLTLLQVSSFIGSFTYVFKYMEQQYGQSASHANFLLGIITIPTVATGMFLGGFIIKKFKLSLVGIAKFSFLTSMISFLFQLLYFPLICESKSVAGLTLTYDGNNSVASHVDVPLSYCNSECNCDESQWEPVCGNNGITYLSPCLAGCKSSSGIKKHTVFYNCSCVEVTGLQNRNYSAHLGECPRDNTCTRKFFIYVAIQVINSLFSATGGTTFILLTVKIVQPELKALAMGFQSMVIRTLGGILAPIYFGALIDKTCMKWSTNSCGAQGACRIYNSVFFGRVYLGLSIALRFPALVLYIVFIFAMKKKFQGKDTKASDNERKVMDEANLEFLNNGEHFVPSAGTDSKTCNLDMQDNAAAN
- measurement.protocol: Inhibition of OATP1B3-mediated valsartan uptake in HEK293-OATP1B3 cells
- Type: cell-based
- Design: host or cells: HEK293
- run.conditions: 5 μM valsartan, 5 min
experimental.readout: pIC50
Please report pIC50 as the negative decimal logarithm of the molar concentration, giving only the number.

GET /value?item= CC(C)=CCC[C@](C)(O[C@@H]1O[C@H](CO[C@@H]2O[C@H](CO)[C@@H](O)[C@H](O)[C@H]2O)[C@@H](O)[C@H](O)[C@H]1O)[C@H]1CC[C@]2(C)[C@@H]1[C@H](O)C[C@@H]1[C@@]3(C)CC[C@H](O[C@@H]4O[C@H](CO)[C@@H](O)[C@H](O)[C@H]4O[C@@H]4O[C@H](CO)[C@@H](O)[C@H](O)[C@H]4O)C(C)(C)[C@@H]3CC[C@]12C [Rb1, ginsenoside Rb1] &field=pIC50 returns 5.39

----------
- measurement.protocol: in vivo
- run.conditions: rat, iv, 1 mg/kg, CL
experimental.readout: clearance (mL/min/kg)
Form entry: value (mL/min/kg) — number only.

Short answer for CCCCC(=O)N(Cc1ccc(-c2ccccc2-c2nnn[nH]2)cc1)[C@H](C(=O)O)C(C)C : clearance was 26
